Measured Papp A→B at 60 min, 10 μM, listed per entry.
- Method Notes: Caco-2 cell permeability assay (A-B and B-A)
- Assay type: in vitro ADME
- Measurement Conditions: human, A-B direction

Below: 3 molecules and their reported Papp A→B at 60 min, 10 μM.
{"columns": ["Smiles Input", "Papp A→B at 60 min, 10 μM"],
 "data": [
  ["CC[C@@H](NC(=O)N1C(=O)[C@H](Cc2ccnc(NC(=O)OC(C)(C)C)c2)[C@H]1C(=O)N(C)c1ccncc1)c1cccc(Cl)c1", "11 to 30 ×10⁻⁶ cm/s"],
  ["CC[C@@H](NC(=O)N1C(=O)[C@H](Cc2ccnc(N)c2)[C@H]1C(=O)N(C)c1ccncc1)c1cccc(C)c1", "≤ 10 ×10⁻⁶ cm/s"],
  ["CC[C@@H](NC(=O)N1C(=O)[C@H](Cc2ccnc(NC)c2)[C@H]1C(=O)N(C)c1ncccn1)C1CCCCC1", "11 to 30 ×10⁻⁶ cm/s"]
]}

// Papp A→B at 60 min, 10 μM lookup, molecule = CC[C@@H](NC(=O)N1C(=O)[C@H](Cc2ccnc(N)c2)[C@H]1C(=O)N(C)c1ccncc1)c1cccc(Cl)c1 , result: ≤ 10 ×10⁻⁶ cm/s

// Papp A→B at 60 min, 10 μM lookup, molecule = CN(C(=O)[C@@H]1[C@@H](Cc2ccnc(N)c2)C(=O)N1C(=O)NC(c1ccccc1)c1ccccc1)c1ccncc1 , result: ≤ 10 ×10⁻⁶ cm/s

// Papp A→B at 60 min, 10 μM lookup, molecule = CC[C@@H](NC(=O)N1C(=O)[C@H](Cc2ccnc(N)c2)[C@H]1C(=O)N(C)c1ccncc1)c1cccc(OC)c1 , result: ≤ 10 ×10⁻⁶ cm/s

----------
- Method Notes: Determination of bioavailability in a dog
- Assay type: in vivo
- Measurement Conditions: plasma, male beagle dogs, IV 1 mg/kg vs oral gavage 5 mg/kg
Measured bioavailability, listed per entry.

Below: 5 compounds and their reported bioavailability.
{"columns": ["Smiles Input", "bioavailability"],
 "data": [
  ["CN(C(=O)[C@@H]1[C@@H](Cc2ccnc(N)c2)C(=O)N1C(=O)N[C@@H](C1CCCCC1)C(F)(F)F)c1ncccn1", "≤ 10%"],
  ["CC[C@@H](NC(=O)N1C(=O)[C@H](Cc2ccnc(N)c2)[C@H]1C(=O)N(C)c1ccncc1)c1cccc(C)c1", "> 30%"],
  ["CC[C@@H](NC(=O)N1C(=O)[C@H](Cc2ccnc(N)c2)[C@H]1C(=O)N(C)c1ncccn1)c1cccnc1", "≤ 10%"],
  ["CC[C@@H](NC(=O)N1C(=O)[C@H](Cc2cc(C)nc(N)c2)[C@H]1C(=O)N(C)c1ccccc1)C1CCCCC1", "> 30%"],
  ["CC[C@@H](NC(=O)N1C(=O)[C@H](Cc2ccnc(NC)c2)[C@H]1C(=O)N(C)c1ncccn1)C1CCCCC1", "> 30%"]
]}

// bioavailability lookup, compound = CC[C@@H](NC(=O)N1C(=O)[C@H](Cc2ccnc(N)c2)[C@H]1C(=O)N(C)c1ccncc1)c1cccnc1 , result: 11 to 30%

// bioavailability lookup, compound = CN(C(=O)[C@@H]1[C@@H](Cc2ccnc(N)c2)C(=O)N1C(=O)N[C@@H](C1CCCCC1)C1CC1)c1ccncc1 , result: ≤ 10%

// bioavailability lookup, compound = CC[C@@H](NC(=O)N1C(=O)[C@H](Cc2ccnc(N)c2)[C@H]1C(=O)N(C)c1ccncc1)c1ccccc1 , result: > 30%
